// data source = paper PMC11073699

- Target Under Test: AaegOR8 (Aedes aegypti, UniProt Q16MN0)
- Sequence (Q16MN0 32-422, one chain of several): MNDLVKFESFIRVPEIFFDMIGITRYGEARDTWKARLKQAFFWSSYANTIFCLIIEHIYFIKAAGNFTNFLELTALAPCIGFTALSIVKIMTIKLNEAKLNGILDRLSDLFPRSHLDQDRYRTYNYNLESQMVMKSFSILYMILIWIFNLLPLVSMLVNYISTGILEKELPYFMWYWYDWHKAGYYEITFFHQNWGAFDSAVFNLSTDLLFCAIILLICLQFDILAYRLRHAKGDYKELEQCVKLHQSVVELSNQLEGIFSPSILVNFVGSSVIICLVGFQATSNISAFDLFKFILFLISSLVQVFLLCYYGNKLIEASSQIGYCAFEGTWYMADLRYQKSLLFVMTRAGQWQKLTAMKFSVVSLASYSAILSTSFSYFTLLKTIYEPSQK
- Experiment: Two-electrode voltage clamp of Xenopus laevis oocytes expressing AaegOR8/Orco (blends, unitary compounds, concentration-response)
- Format: cell-based
- Setup Conditions: Alcohols 2 unitary compounds; oocyte 6

{"Compound": "COc1ccccc1", "Raw data (Responses in nA) Oocyte 6": 10.0}
{"Compound": "CCCCCCO", "Raw data (Responses in nA) Oocyte 6": 170.0}
{"Compound": "CCC/C=C/CO [trans-2-hexen-1-ol]", "Raw data (Responses in nA) Oocyte 6": 0.0}
{"Compound": "CC/C=C\\CCO [cis-3-hexen-1-ol]", "Raw data (Responses in nA) Oocyte 6": 0.0}
{"Compound": "OC1CCCCC1", "Raw data (Responses in nA) Oocyte 6": 0.0}
{"Compound": "C=CC(O)CCCCC (stereo not drawn)", "Raw data (Responses in nA) Oocyte 6": 2200.0}
{"Compound": "C[C@@H]1CC[C@H]2C(C)(C)[C@H]3C[C@@]12CC[C@@]3(C)O", "Raw data (Responses in nA) Oocyte 6": 0.0}
{"Compound": "CCC/C=C/C=O [trans-2-hexenal]", "Raw data (Responses in nA) Oocyte 6": 0.0}
{"Compound": "CC1CCCC2(C)CCCCC12O (stereo not drawn)", "Raw data (Responses in nA) Oocyte 6": 0.0}

====

- Target Under Test: UniProt A0A3S7SHD4
- Experiment: Two-electrode voltage clamp of Xenopus laevis oocytes expressing AaegOR71/Orco (blends, unitary compounds, concentration-response)
- Type: cell-based
- Setup Conditions: Indoles 2 unitary compounds; oocyte 1

{"Molecule": "c1ccc2ncccc2c1 [Quinoline]", "Raw Data (Response in nA) Oocyte 1": 900}
{"Molecule": "c1ccc2nccnc2c1 [Quinoxaline]", "Raw Data (Response in nA) Oocyte 1": 0}
{"Molecule": "O=C1Nc2ccccc2C1=O [Isatin]", "Raw Data (Response in nA) Oocyte 1": 150}
{"Molecule": "O=C1CCOc2ccccc21 [4-chromanone, 4-Chromanone]", "Raw Data (Response in nA) Oocyte 1": 0}
{"Molecule": "O=Cc1ccnc2ccccc12 [4-quinolinecarboxaldehyde, 4-Quinolinecarboxaldehyde]", "Raw Data (Response in nA) Oocyte 1": 1070}
{"Molecule": "OCc1c[nH]c2ccccc12 [3-Indolemethanol]", "Raw Data (Response in nA) Oocyte 1": 240}
{"Molecule": "O=C(O)Cc1c[nH]c2ccccc12 [1H-Indole-3-acetic acid]", "Raw Data (Response in nA) Oocyte 1": 0}
{"Molecule": "O=C1Cc2ccccc2N1 [Oxindole]", "Raw Data (Response in nA) Oocyte 1": 0}
{"Molecule": "c1ccc2ncncc2c1 [Quinazoline]", "Raw Data (Response in nA) Oocyte 1": 70}
{"Molecule": "Nc1cccc2cnccc12 [5-Aminoisoquinoline]", "Raw Data (Response in nA) Oocyte 1": 130}
{"Molecule": "Oc1cccc2[nH]ccc12 [4-Hydroxyindole]", "Raw Data (Response in nA) Oocyte 1": 20}

====

- Target Under Test: AaegOR71 (Aedes aegypti)
- Experiment: Two-electrode voltage clamp of Xenopus laevis oocytes expressing AaegOR71/Orco (blends, unitary compounds, concentration-response)
- Format: cell-based
- Setup Conditions: Indoles 2 unitary compounds; oocyte 4
Entry flag: fulfilled if Raw Data (Response in nA) Oocyte 4 reaches 200 nA; not fulfilled if it does not.

{"Compound": "O=Cc1ccnc2ccccc12", "Group Label": "fulfilled"}
{"Compound": "OCc1c[nH]c2ccccc12", "Group Label": "not fulfilled"}
{"Compound": "c1ccc2ncncc2c1", "Group Label": "fulfilled"}
{"Compound": "O=C1Nc2ccccc2C1=O", "Group Label": "not fulfilled"}
{"Compound": "O=C(O)Cc1c[nH]c2ccccc12", "Group Label": "not fulfilled"}
{"Compound": "O=C1Cc2ccccc2N1", "Group Label": "not fulfilled"}
{"Compound": "c1ccc2ncccc2c1", "Group Label": "fulfilled"}
{"Compound": "c1ccc2nccnc2c1", "Group Label": "fulfilled"}
{"Compound": "Nc1cccc2cnccc12", "Group Label": "not fulfilled"}
{"Compound": "O=C1CCOc2ccccc21", "Group Label": "not fulfilled"}
{"Compound": "Oc1cccc2[nH]ccc12 [4-Hydroxyindole]", "Group Label": "not fulfilled"}

====

- Target Under Test: UniProtKB A0A1S4G757
- Sequence (A0A1S4G757 1-398): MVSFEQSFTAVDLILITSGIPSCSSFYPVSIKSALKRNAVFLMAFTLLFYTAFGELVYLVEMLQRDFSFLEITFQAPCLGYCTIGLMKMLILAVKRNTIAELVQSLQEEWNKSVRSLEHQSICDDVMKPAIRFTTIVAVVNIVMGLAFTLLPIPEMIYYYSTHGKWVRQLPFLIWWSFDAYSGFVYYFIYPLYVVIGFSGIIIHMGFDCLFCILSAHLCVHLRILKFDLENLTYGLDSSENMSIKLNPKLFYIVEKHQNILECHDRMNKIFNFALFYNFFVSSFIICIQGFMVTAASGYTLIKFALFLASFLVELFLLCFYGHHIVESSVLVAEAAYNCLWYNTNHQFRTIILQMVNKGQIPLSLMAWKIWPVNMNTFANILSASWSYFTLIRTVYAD
- Sequence (Q178U6 1-478 partner): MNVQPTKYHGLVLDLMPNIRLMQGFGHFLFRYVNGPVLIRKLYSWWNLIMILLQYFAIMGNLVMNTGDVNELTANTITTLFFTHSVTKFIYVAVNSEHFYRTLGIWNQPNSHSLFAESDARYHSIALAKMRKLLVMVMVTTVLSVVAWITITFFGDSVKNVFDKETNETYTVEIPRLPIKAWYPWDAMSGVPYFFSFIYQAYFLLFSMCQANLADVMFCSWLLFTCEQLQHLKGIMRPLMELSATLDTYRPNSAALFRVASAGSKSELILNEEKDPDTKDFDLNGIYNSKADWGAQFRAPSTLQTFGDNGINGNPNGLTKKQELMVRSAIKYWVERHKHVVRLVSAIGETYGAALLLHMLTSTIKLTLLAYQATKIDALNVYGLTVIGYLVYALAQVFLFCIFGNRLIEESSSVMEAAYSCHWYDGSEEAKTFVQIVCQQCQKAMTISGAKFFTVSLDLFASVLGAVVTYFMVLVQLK
- Experiment: Two-electrode voltage clamp of Xenopus laevis oocytes expressing AaegOR6/Orco (blends, unitary compounds, concentration-response)
- Assay type: cell-based
- Setup Conditions: Indoles 2 unitary compounds; oocyte 3

{"Compound": "c1ccc2ncncc2c1", "Target Under Test": "UniProtKB A0A1S4G757", "Units Of Measure": "nA", "Raw data (Responses in nA) Oocyte 3": 0.0}
{"Compound": "O=C1Cc2ccccc2N1", "Target Under Test": "UniProtKB A0A1S4G757", "Units Of Measure": "nA", "Raw data (Responses in nA) Oocyte 3": 0.0}
{"Compound": "O=C(O)Cc1c[nH]c2ccccc12", "Target Under Test": "UniProtKB A0A1S4G757", "Units Of Measure": "nA", "Raw data (Responses in nA) Oocyte 3": 10.0}
{"Compound": "Nc1cccc2cnccc12", "Target Under Test": "UniProtKB A0A1S4G757", "Units Of Measure": "nA", "Raw data (Responses in nA) Oocyte 3": 0.0}
{"Compound": "c1ccc2nccnc2c1", "Target Under Test": "UniProtKB A0A1S4G757", "Units Of Measure": "nA", "Raw data (Responses in nA) Oocyte 3": 0.0}
{"Compound": "O=C1Nc2ccccc2C1=O", "Target Under Test": "UniProtKB A0A1S4G757", "Units Of Measure": "nA", "Raw data (Responses in nA) Oocyte 3": 10.0}
{"Compound": "O=Cc1ccnc2ccccc12", "Target Under Test": "UniProtKB A0A1S4G757", "Units Of Measure": "nA", "Raw data (Responses in nA) Oocyte 3": 0.0}
{"Compound": "c1ccc2ncccc2c1", "Target Under Test": "UniProtKB A0A1S4G757", "Units Of Measure": "nA", "Raw data (Responses in nA) Oocyte 3": 0.0}
{"Compound": "OCc1c[nH]c2ccccc12", "Target Under Test": "UniProtKB A0A1S4G757", "Units Of Measure": "nA", "Raw data (Responses in nA) Oocyte 3": 10.0}
{"Compound": "O=C1CCOc2ccccc21", "Target Under Test": "UniProtKB A0A1S4G757", "Units Of Measure": "nA", "Raw data (Responses in nA) Oocyte 3": 90.0}
{"Compound": "Oc1cccc2[nH]ccc12 [4-Hydroxyindole]", "Target Under Test": "UniProtKB A0A1S4G757", "Units Of Measure": "nA", "Raw data (Responses in nA) Oocyte 3": 5.0}

====

Each entry below lists one item and its recorded Raw Data (Response in nA) Oocyte 8 value.
- Target Under Test: AaegOR71 (Aedes aegypti, UniProt A0A3S7SHD4)
- Sequence (A0A3S7SHD4 1-415): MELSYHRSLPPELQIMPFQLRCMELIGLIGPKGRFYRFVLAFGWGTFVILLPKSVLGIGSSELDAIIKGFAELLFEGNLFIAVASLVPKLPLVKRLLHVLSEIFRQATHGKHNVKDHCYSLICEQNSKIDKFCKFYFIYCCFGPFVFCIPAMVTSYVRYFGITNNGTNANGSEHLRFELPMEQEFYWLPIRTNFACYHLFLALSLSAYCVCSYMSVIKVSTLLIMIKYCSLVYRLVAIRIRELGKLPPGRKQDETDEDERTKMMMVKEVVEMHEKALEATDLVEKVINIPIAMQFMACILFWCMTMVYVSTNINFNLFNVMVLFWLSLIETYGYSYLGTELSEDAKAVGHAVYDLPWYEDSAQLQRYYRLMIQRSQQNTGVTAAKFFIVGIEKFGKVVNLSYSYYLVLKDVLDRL
- Sequence (Q178U6 1-478 partner): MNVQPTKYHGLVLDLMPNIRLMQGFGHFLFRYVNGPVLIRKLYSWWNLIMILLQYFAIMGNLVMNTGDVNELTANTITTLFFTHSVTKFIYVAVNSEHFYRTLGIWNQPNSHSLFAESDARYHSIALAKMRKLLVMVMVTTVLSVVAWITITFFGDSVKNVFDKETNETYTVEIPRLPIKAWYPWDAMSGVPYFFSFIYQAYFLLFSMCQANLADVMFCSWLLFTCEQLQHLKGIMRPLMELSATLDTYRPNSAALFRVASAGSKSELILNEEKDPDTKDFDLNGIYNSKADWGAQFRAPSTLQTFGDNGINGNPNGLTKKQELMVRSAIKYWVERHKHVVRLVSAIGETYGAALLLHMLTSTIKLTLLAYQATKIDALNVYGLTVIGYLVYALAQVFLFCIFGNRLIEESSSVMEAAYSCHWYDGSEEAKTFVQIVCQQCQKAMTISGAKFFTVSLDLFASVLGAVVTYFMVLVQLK
- Experiment: Two-electrode voltage clamp of Xenopus laevis oocytes expressing AaegOR71/Orco (blends, unitary compounds, concentration-response)
- Assay type: cell-based
- Setup Conditions: Indoles 2 unitary compounds; oocyte 8

{"Compound": "O=Cc1ccnc2ccccc12", "Raw Data (Response in nA) Oocyte 8": 410}
{"Compound": "O=C1Nc2ccccc2C1=O", "Raw Data (Response in nA) Oocyte 8": 0}
{"Compound": "OCc1c[nH]c2ccccc12", "Raw Data (Response in nA) Oocyte 8": 0}
{"Compound": "Oc1cccc2[nH]ccc12 [4-Hydroxyindole]", "Raw Data (Response in nA) Oocyte 8": 10}
{"Compound": "Nc1cccc2cnccc12", "Raw Data (Response in nA) Oocyte 8": 10}
{"Compound": "c1ccc2nccnc2c1", "Raw Data (Response in nA) Oocyte 8": 70}
{"Compound": "c1ccc2ncncc2c1", "Raw Data (Response in nA) Oocyte 8": 40}
{"Compound": "c1ccc2ncccc2c1", "Raw Data (Response in nA) Oocyte 8": 250}
{"Compound": "O=C1CCOc2ccccc21", "Raw Data (Response in nA) Oocyte 8": 20}
{"Compound": "O=C(O)Cc1c[nH]c2ccccc12", "Raw Data (Response in nA) Oocyte 8": 60}
{"Compound": "O=C1Cc2ccccc2N1", "Raw Data (Response in nA) Oocyte 8": 20}
